- Test system: HUH7 (human hepatoma cell line)
- assay.info: Cell death detection, trypan blue exclusion assay, HUH7
- Format: cell-based
- experimental.context: Huh-7, 168 h, HUH7, 7-day treatment, 7.5 uM, read-out: Cell Death (%) at Tested Concentration
Binary call on cytotoxicity at 7.5 µM with cut-off 50%: strictly below means Yes, and equality or higher means No.

>>> df
                                   compound  assigned_category
0  CNC(=O)c1cc(Oc2ccc(NC(=O)Nc3ccc(Cl)c(S(F)(F)(F)(F)F)c3)c(F)c2)ccn1 [Example 4]                 No
1  CNC(=O)c1cc(Oc2ccc(NC(=O)Nc3cccc(S(F)(F)(F)(F)F)c3)cc2)ccn1 [Example 1]                 No
2  CNC(=O)c1cc(Oc2ccc(NC(=O)Nc3ccc(Cl)c(S(F)(F)(F)(F)F)c3)cc2)ccn1 [Example 3]                 No
3  CNC(=O)c1cc(Oc2ccc(NC(=O)Nc3cc(S(F)(F)(F)(F)F)ccc3Cl)c(F)c2)ccn1 [Example 6]                Yes
4  CNC(=O)c1cc(Oc2ccc(NC(=O)Nc3ccc(S(F)(F)(F)(F)F)cc3)c(F)c2)ccn1 [Example 10]                 No
5  CNC(=O)c1cc(Oc2ccc(NC(=O)Nc3cc(S(F)(F)(F)(F)F)ccc3Cl)cc2)ccn1 [Example 5]                Yes
6  CNC(=O)c1cc(Oc2ccc(NC(=O)Nc3cccc(S(F)(F)(F)(F)F)c3)c(F)c2)ccn1 [Example 2]                 No

----------
- target: KDR(VEGFR2) (Homo sapiens)
- Sequence (P35968 20-1356): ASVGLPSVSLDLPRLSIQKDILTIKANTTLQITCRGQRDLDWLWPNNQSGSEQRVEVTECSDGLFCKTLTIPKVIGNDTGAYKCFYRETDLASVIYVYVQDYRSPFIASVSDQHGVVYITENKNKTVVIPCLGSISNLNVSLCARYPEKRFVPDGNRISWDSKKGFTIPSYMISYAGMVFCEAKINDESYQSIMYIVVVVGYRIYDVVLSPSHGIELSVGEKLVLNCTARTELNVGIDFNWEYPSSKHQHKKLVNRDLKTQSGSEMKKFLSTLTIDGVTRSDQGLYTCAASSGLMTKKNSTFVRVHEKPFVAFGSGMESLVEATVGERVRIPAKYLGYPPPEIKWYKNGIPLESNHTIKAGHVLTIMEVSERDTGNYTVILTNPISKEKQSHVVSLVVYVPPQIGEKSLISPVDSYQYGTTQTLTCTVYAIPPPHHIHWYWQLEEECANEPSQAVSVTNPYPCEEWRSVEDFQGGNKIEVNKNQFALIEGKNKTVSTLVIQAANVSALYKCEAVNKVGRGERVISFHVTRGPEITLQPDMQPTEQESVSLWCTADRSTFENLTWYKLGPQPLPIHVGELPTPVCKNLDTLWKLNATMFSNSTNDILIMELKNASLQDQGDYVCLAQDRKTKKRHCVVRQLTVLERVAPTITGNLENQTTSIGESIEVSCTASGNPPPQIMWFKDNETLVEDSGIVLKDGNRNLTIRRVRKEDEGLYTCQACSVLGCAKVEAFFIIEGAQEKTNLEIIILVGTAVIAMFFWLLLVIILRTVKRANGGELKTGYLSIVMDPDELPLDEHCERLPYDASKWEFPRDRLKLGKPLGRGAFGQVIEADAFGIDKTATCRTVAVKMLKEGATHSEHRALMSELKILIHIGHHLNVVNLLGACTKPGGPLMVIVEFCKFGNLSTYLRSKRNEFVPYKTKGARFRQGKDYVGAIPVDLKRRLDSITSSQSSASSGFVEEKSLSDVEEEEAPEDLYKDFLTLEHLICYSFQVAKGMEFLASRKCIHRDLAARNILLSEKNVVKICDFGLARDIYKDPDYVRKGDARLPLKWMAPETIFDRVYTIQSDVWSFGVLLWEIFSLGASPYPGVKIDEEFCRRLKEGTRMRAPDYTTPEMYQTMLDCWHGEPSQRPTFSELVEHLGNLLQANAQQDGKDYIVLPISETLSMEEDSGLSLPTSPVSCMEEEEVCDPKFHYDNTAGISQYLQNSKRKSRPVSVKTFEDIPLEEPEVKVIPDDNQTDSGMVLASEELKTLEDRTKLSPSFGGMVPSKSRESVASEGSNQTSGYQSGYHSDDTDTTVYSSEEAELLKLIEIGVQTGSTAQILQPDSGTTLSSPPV
- assay.info: In vitro kinase assay (Invitrogen SelectScreen Profiling Service), KDR
- Format: biochemical
property.measured: inhibition at 0.1 µM (%)

In [3]: df
Out[3]:
                                   compound     property_measured  unit_abbreviation  endpoint_value
0  CNC(=O)c1cc(Oc2ccc(NC(=O)Nc3ccc(Cl)c(S(F)(F)(F)(F)F)c3)c(F)c2)ccn1 [Example 4]  inhibition at 0.1 µM                  %              36
1  CNC(=O)c1cc(Oc2ccc(NC(=O)Nc3cccc(S(F)(F)(F)(F)F)c3)c(F)c2)ccn1 [Example 2]  inhibition at 0.1 µM                  %              76
2  CNC(=O)c1cc(Oc2ccc(NC(=O)Nc3cccc(S(F)(F)(F)(F)F)c3)cc2)ccn1 [Example 1]  inhibition at 0.1 µM                  %              79
3  CNC(=O)c1cc(Oc2ccc(NC(=O)Nc3ccc(Cl)c(S(F)(F)(F)(F)F)c3)cc2)ccn1 [Example 3]  inhibition at 0.1 µM                  %              64

----------
- System: LNCaP (human prostate adenocarcinoma cell line)
- assay.info: Cell death detection, trypan blue exclusion assay, LNCaP
- Type: cell-based
- experimental.context: 168 h, 7-day treatment, 1.0 uM, read-out: Cell Death (%) at Tested Concentration
property.measured: cytotoxicity at 1 µM (%)

>>> print(df.to_string())
                                   molecule                                    target  endpoint_value
0  CNC(=O)c1cc(Oc2ccc(NC(=O)Nc3ccc(Cl)c(S(F)(F)(F)(F)F)c3)cc2)ccn1  LNCaP (human prostate adenocarcinoma cell line)             2.3
1  CNC(=O)c1cc(Oc2ccc(NC(=O)Nc3cc(S(F)(F)(F)(F)F)ccc3Cl)c(F)c2)ccn1  LNCaP (human prostate adenocarcinoma cell line)             1.7
2  CNC(=O)c1cc(Oc2ccc(NC(=O)Nc3ccc(Cl)c(S(F)(F)(F)(F)F)c3)c(F)c2)ccn1  LNCaP (human prostate adenocarcinoma cell line)             1.4
3  CNC(=O)c1cc(Oc2ccc(NC(=O)Nc3ccc(S(F)(F)(F)(F)F)cc3)c(F)c2)ccn1  LNCaP (human prostate adenocarcinoma cell line)             2.2
4  CNC(=O)c1cc(Oc2ccc(NC(=O)Nc3cccc(S(F)(F)(F)(F)F)c3)cc2)ccn1  LNCaP (human prostate adenocarcinoma cell line)             1.6
5  CNC(=O)c1cc(Oc2ccc(NC(=O)Nc3cccc(S(F)(F)(F)(F)F)c3)c(F)c2)ccn1  LNCaP (human prostate adenocarcinoma cell line)             1.5
6  CNC(=O)c1cc(Oc2ccc(NC(=O)Nc3cc(S(F)(F)(F)(F)F)ccc3Cl)cc2)ccn1  LNCaP (human prostate adenocarcinoma cell line)             1.8
7  CNC(=O)c1cc(Oc2ccc(NC(=O)Nc3ccc(Cl)c(C(F)(F)F)c3)cc2)ccn1 [Sorafenib, reference compound]  LNCaP (human prostate adenocarcinoma cell line)             1.6
